- recorded.conditions: pH 2.7
readout: logp [a]

# count of solved cases: 5
C=CCOCc1ccccc1C1CC(c2csc(C3CCN(C(=O)Cn4nc(C(F)F)cc4C(F)F)CC3)n2)=NO1 (centres unmarked) [I-94]; 3.63[a]
N#CCOc1cccc(Cl)c1C1CC(c2csc(C3CCN(C(=O)Cn4nc(C(F)F)cc4C(F)F)CC3)n2)=NO1 (centres unmarked); 3.19[a],
CC(=O)OCc1ccccc1C1CC(c2csc(C3CCN(C(=O)Cn4nc(C(F)(F)F)cc4C)CC3)n2)=NO1 (racemic); 3.31[a]
N#CCOc1ccc(Cl)cc1C1CC(c2csc(C3CCN(C(=O)Cn4nc(C(F)F)cc4C(F)F)CC3)n2)=NO1 (racemic); 3.27[a],
C=CC(=O)Oc1ccccc1C1CC(c2csc(C3CCN(C(=O)Cn4nc(C(F)F)cc4C(F)F)CC3)n2)=NO1 (centres unmarked); 3.21[a],

Kindly give each listed record's logp [a].
1. CS(=O)(=O)Oc1ccccc1C1CC(c2csc(C3CCN(C(=O)Cn4nc(C(F)F)cc4C(F)F)CC3)n2)=NO1 (centres unmarked)
2. C#CCOCc1ccccc1C1CC(c2csc(C3CCN(C(=O)Cn4nc(C(F)(F)F)cc4C)CC3)n2)=NO1 (racemic)

Reply:
1. 2.86[a],
2. 3.43[a]

Task item: Entry under review: CCS(=O)(=O)Oc1ccccc1C1CC(c2csc(C3CCN(C(=O)Cn4nc(C(F)F)cc4C(F)F)CC3)n2)=NO1 (centres unmarked) . Reported logp [a]?
Reply: 3.1[a],

----------
- Test system: Phytophthora infestans
- Type: in vivo
- recorded.conditions: tomato plants, protective spray, active ingredient concentration 100 ppm, evaluation 7 days after inoculation; 0% = control, 100% = no infection
readout: Eff. % (%)
Numbers only, in %.

CCON=Cc1cccc(C2CC(c3csc(C4CCN(C(=O)Cn5nc(C(F)(F)F)cc5C)CC4)n3)=NO2)c1 (mixture of isomers); 100
CCON=Cc1cccc(C2CC(c3csc(C4CCN(C(=O)Cn5nc(C(F)F)cc5C(F)F)CC4)n3)=NO2)c1 (mixture of isomers); 100
COCCSCc1ccccc1C1CC(c2csc(C3CCN(C(=O)Cn4nc(C(F)F)cc4C(F)F)CC3)n2)=NO1 (stereo not shown); 100
C#CCN(C=O)c1ccccc1C1CC(c2csc(C3CCN(C(=O)Cn4nc(C(F)F)cc4C(F)F)CC3)n2)=NO1 (stereo not shown); 79
N#CCOc1ccccc1C1CC(c2csc(C3CCN(C(=O)Cn4nc(C(F)F)cc4C(F)F)CC3)n2)=NO1 (stereo not shown); 94

Go through the items and report each one's Eff. %.
1. CON=Cc1cccc(F)c1C1CC(c2csc(C3CCN(C(=O)Cn4nc(C(F)F)cc4C(F)F)CC3)n2)=NO1 (mixture of isomers)
2. O=C(Cn1nc(C(F)F)cc1C(F)F)N1CCC(c2nc(C3=NOC(c4cccc(OCC#Cc5cccc6ccccc56)c4)C3)cs2)CC1 (stereo not shown)

Reply:
84
100

----------
- Test system: Phytophthora infestans
- Assay type: in vivo
- recorded.conditions: tomato plants, protective spray, active ingredient concentration 100 ppm, evaluation 7 days after inoculation; 0% = control, 100% = no infection
Can you tell me Eff. % for the items I'm about to list?
Answers are plain numbers, in %.

Previously resolved entries follow.
Cc1cc(C(F)(F)F)nn1CC(=O)N1CCC(c2nc(C3=NOC(c4c(Cl)cccc4OS(C)(=O)=O)C3)cs2)CC1 (stereo not shown) [I-103]; 80
CS(=O)(=O)Oc1cc(Cl)ccc1C1CC(c2csc(C3CCN(C(=O)Cn4nc(C(F)F)cc4C(F)F)CC3)n2)=NO1 (stereo not shown) [I-70]; 97
Cc1cc(C(F)(F)F)nn1CC(=O)N1CCC(c2nc(C3=NOC(c4ccccc4C=NOC(C)C)C3)cs2)CC1 (mixture of isomers) [I-39]; 100
O=CNc1ccccc1C1CC(c2csc(C3CCN(C(=O)Cc4cc(C(F)F)ccc4C(F)F)CC3)n2)=NO1 (stereo not shown) [I-123]; 100
CC(=NOC(C)C)c1ccccc1C1CC(c2csc(C3CCN(C(=O)Cn4nc(C(F)F)cc4C(F)F)CC3)n2)=NO1 (mixture of isomers) [I-28]; 100

Provide each entry's Eff. % from the list below.
1. CON=Cc1cccc(F)c1C1CC(c2csc(C3CCN(C(=O)Cn4nc(C(F)(F)F)cc4C)CC3)n2)=NO1 (mixture of isomers) [I-118]
2. CSCOc1ccccc1C1CC(c2csc(C3CCN(C(=O)Cn4nc(C(F)(F)F)cc4C)CC3)n2)=NO1 (stereo not shown) [I-120]

Reply:
1. 95
2. 89
